Taken from patent US11427586B2.

- Tested on: SCD1
- assay_info: Measurement of SCD1 expression in SZ95-SCD1-HiBit cells (HiBiT assay)
- Type: cell-based
- test_settings: Homo sapiens; SZ95-SCD1-HiBit cells, 48 h, SCD1 protein production, luminescence; initial dilution 1:3 in DMSO; read-out: HiBit EC50
Threshold-based label: EC50 under 4 nM gives class 1, EC50 not under 4 nM gives class 0.

I wonder whether CC(C)CS(=O)(=O)c1ccccc1Oc1ccc(-c2noc(CN3C(=O)N(CCN4CCOCC4)C(C)(C)C3=O)n2)cc1Cl [Compound 49] has EC50 below 4 nM. Can you tell?
class 0

I wonder whether CC(C)CS(=O)(=O)c1ccccc1Oc1ccc(-c2noc(CN3C(=O)N(CCC4(O)CCOCC4)C(C)(C)C3=O)n2)cc1C(F)(F)F [Compound 6] has EC50 below 4 nM. Can you tell?
class 0

I wonder whether CC(C)CS(=O)(=O)c1ccccc1Oc1ccc(-c2noc(CN3C(=O)N(CCN4CCOCC4)C4(CCN(Cc5cc(O)cc(O)c5)CC4)C3=O)n2)cc1C(F)(F)F [Compound 21] has EC50 below 4 nM. Can you tell?
class 1

I wonder whether CC(CS(=O)(=O)c1ccccc1Oc1ccc(-c2noc(CN3C(=O)N(CCN4CCOCC4)C(C)(C)C3=O)n2)cc1C(F)(F)F)N1CCCC1 (stereo not drawn) [Compound 43] has EC50 below 4 nM. Can you tell?
class 1

I wonder whether CC(C)CS(=O)(=O)c1ccccc1Oc1ccc(-c2noc(CN3C(=O)N(CCN4CCOCC4)C4(CCN(CC5CC5)CC4)C3=O)n2)cc1C(F)(F)F [Compound 27] has EC50 below 4 nM. Can you tell?
class 1

###

- System: SCD1
- assay_info: Measurement of SCD1 expression in SZ95-SCD1-HiBit cells (HiBiT assay)
- Format: cell-based
- test_settings: Homo sapiens; SZ95-SCD1-HiBit cells, 48 h, SCD1 protein production, luminescence; initial dilution 1:3 in DMSO; read-out: HiBit EC50
- Text: Measurement of SCD1 Expression in SZ95-SCD1-HiBit Cells SCD1 expression levels in SZ95 cells were quantitated using the HiBiT system (Promega) in which a small peptide sequence (SmBiT) with a larger protein (LgBiT) reconstitutes luciferase activity and can generate a luminescent signal used for quantitation. […]
Measured pEC50 values are reported for all entries that follow.
Note on units: pEC50 is unitless, being -log10 of a concentration expressed in mol/L.

These solved cases illustrate the format of a correct answer.
molecule: CC(COc1ccc(-c2noc(CN3C(=O)N(CCN4CCOCC4)C4(CCN(C5CCC5)CC4)C3=O)n2)cc1C(F)(F)F)(C(F)(F)F)C(F)(F)F
pEC50: 9.62
--
molecule: CC(C)(C)c1ccccc1Oc1ccc(-c2noc(CN3C(=O)N(CCC4CCOCC4)C4(CCN(C5CCC5)CC4)C3=O)n2)cc1C(F)(F)F
pEC50: 9.89

Data request, read-out pEC50, for CC(C)CS(=O)(=O)c1ccccc1Oc1ccc(-c2noc(CN3C(=O)N(CCN4CCOCC4)C4(CCN(C(=O)c5ccncn5)CC4)C3=O)n2)cc1C(F)(F)F
9.42

Data request, read-out pEC50, for O=C1N(Cc2nc(-c3ccc(Oc4ccccc4S(=O)(=O)CC4CCCO4)c(C(F)(F)F)c3)no2)C(=O)C2(CCN(C3CCC3)CC2)N1CCC1CCOCC1 (stereo not drawn)
10.38

Data request, read-out pEC50, for CCCC(=O)N1CCC2(CC1)C(=O)N(Cc1nc(-c3ccc(Oc4ccccc4S(=O)(=O)CC(C)C)c(C(F)(F)F)c3)no1)C(=O)N2CCN1CCOCC1
9.21

###

- Tested on: SCD1
- assay_info: Measurement of SCD1 expression in SZ95-SCD1-HiBit cells (HiBiT assay)
- Type: cell-based
- test_settings: Homo sapiens; SZ95-SCD1-HiBit cells, 48 h, SCD1 protein production, luminescence; initial dilution 1:3 in DMSO; read-out: HiBit EC50
metric_name: EC50 (nM)
Entry rule: numbers only, all in nM.

These solved cases illustrate the format of a correct answer.
molecule: CC(C)CS(=O)(=O)c1ccccc1Oc1ccc(-c2noc(CN3C(=O)N(CCN4CCOCC4)C4(CCN(C5CCC5)CC4)C3=O)n2)cc1C(F)(F)F [Compound 8]
observed: 0.111

molecule: O=C1N(Cc2nc(-c3ccc(Oc4ccccc4S(=O)(=O)CC(F)(F)F)c(C(F)(F)F)c3)no2)C(=O)C2(CCN(C3CCC3)CC2)N1CCN1CCOCC1 [Compound 47]
observed: 0.728

molecule: O=C1N(Cc2nc(-c3ccc(Oc4ccccc4S(=O)(=O)CC(F)(F)F)c(C(F)(F)F)c3)no2)C(=O)C2(CCN(C3CCC3)CC2)N1CCC1CCOCC1 [Compound 48]
observed: 0.053

molecule: CC1(C)C(=O)N(Cc2nc(-c3ccc(Oc4ccccc4S(=O)(=O)CC4CCCCO4)c(C(F)(F)F)c3)no2)C(=O)N1CCN1CCOCC1 (stereo not drawn) [Compound 53]
observed: 0.264

molecule: CC1(C)C(=O)N(Cc2nc(-c3ccc(Oc4ccccc4S(=O)(=O)C4CC(O)C4)c(C(F)(F)F)c3)no2)C(=O)N1CCN1CCOCC1 (stereo not drawn) [Compound 39]
observed: 1.4

Now take the following molecule into account.
Data request, read-out EC50, for CC(C)CS(=O)(=O)c1ccccc1Oc1ccc(-c2noc(CN3C(=O)N(CCN4CCOCC4)C4(CCN(CC5CCOCC5)CC4)C3=O)n2)cc1C(F)(F)F [Compound 26]
0.796

###

- Test system: SCD1
- assay_info: Measurement of SCD1 expression in SZ95-SCD1-HiBit cells (HiBiT assay)
- Format: cell-based
- test_settings: Homo sapiens; SZ95-SCD1-HiBit cells, 48 h, SCD1 protein production, luminescence; initial dilution 1:3 in DMSO; read-out: HiBit EC50
Threshold-based label: EC50 under 0.7 nM gives fulfilled, EC50 not under 0.7 nM gives not fulfilled.

molecule: O=C1N(Cc2nc(-c3ccc(Oc4ccccc4S(=O)(=O)CC4CCCO4)c(C(F)(F)F)c3)no2)C(=O)C2(CCOCC2)N1CCN1CCOCC1 (stereo not drawn)
category: not fulfilled
--
molecule: CC1(C)C(=O)N(Cc2nc(-c3ccc(OCC(C)(C(F)(F)F)C(F)(F)F)c(C(F)(F)F)c3)no2)C(=O)N1CCC1CCOCC1
category: fulfilled
--
molecule: CC(C)CS(=O)(=O)c1ccccc1Oc1ccc(-c2noc(CN3C(=O)CN(CCN4CCOCC4)C3=O)n2)cc1C(F)(F)F
category: not fulfilled
--
molecule: CC(O)CS(=O)(=O)c1ccccc1Oc1ccc(-c2noc(CN3C(=O)N(CCN4CCOCC4)C(C)(C)C3=O)n2)cc1C(F)(F)F (stereo not drawn)
category: not fulfilled

I wonder whether CC1(C)C(=O)N(Cc2nc(-c3ccc(Oc4ccccc4S(C)(=O)=O)c(C(F)(F)F)c3)no2)C(=O)N1CCN1CCOCC1 has EC50 below 0.7 nM. Can you tell?
not fulfilled

###

- System: SCD1
- assay_info: Measurement of SCD1 expression in SZ95-SCD1-HiBit cells (HiBiT assay)
- Type: cell-based
- test_settings: Homo sapiens; SZ95-SCD1-HiBit cells, 48 h, SCD1 protein production, luminescence; initial dilution 1:3 in DMSO; read-out: HiBit EC50
metric_name: log10(EC50) (log10 of the value in nM)
All values: log10 EC50 [nM].

These solved cases illustrate the format of a correct answer.
molecule: CC1(C)C(=O)N(Cc2nc(-c3ccc(Oc4ccccc4S(=O)(=O)CC4CCOC4)c(C(F)(F)F)c3)no2)C(=O)N1CCN1CCOCC1 (stereo not drawn) [Compound 38]
experimental_system: SCD1
log10(EC50): 0.72

molecule: CC(C)CS(=O)(=O)c1ccccc1Oc1ccc(-c2noc(CN3C(=O)N(CCN4CCOCC4)C4(CCN(C5CCN(C)C5)CC4)C3=O)n2)cc1C(F)(F)F (stereo not drawn) [Compound 23]
experimental_system: SCD1
log10(EC50): 0.54

molecule: CC1(C)C(=O)N(Cc2nc(-c3ccc(OCCC(F)(F)F)c(C(F)(F)F)c3)no2)C(=O)N1CCN1CCOCC1 [Compound 66]
experimental_system: SCD1
log10(EC50): 2.27

molecule: CC(C)CS(=O)(=O)c1ccccc1Oc1ccc(-c2noc(CN3C(=O)N(CCC4CCOCC4)C4(CCN(C(=O)c5cnccn5)CC4)C3=O)n2)cc1C(F)(F)F [Compound 36]
experimental_system: SCD1
log10(EC50): -0.92

molecule: CS(=O)(=O)c1ccccc1Oc1ccc(-c2noc(CN3C(=O)N(CCC4CCOCC4)C4(CCN(C5CCC5)CC4)C3=O)n2)cc1C(F)(F)F [Compound 17]
experimental_system: SCD1
log10(EC50): -1.39

Data request, read-out log10(EC50), for CC(C)CS(=O)(=O)c1ccccc1Oc1ccc(-c2noc(CN3C(=O)N(CCN4CCOCC4)C4(CCN(C(=O)C5CCN(C)CC5)CC4)C3=O)n2)cc1C(F)(F)F [Compound 33]
0.93
